target: Acetylcholinesterase (Homo sapiens) (UniProt P22303); experiment: Acetylcholinesterase (AChE) small molecule antagonists: fluorescence cell-based qHTS assay (AID 1347398); conditions: SH-SY5Y cells; AChE activity; series mostly up to 115 µM; also: nearly all actives have a fitted effect of over 50% in size
Sequence (P22303 whole entry, looked up): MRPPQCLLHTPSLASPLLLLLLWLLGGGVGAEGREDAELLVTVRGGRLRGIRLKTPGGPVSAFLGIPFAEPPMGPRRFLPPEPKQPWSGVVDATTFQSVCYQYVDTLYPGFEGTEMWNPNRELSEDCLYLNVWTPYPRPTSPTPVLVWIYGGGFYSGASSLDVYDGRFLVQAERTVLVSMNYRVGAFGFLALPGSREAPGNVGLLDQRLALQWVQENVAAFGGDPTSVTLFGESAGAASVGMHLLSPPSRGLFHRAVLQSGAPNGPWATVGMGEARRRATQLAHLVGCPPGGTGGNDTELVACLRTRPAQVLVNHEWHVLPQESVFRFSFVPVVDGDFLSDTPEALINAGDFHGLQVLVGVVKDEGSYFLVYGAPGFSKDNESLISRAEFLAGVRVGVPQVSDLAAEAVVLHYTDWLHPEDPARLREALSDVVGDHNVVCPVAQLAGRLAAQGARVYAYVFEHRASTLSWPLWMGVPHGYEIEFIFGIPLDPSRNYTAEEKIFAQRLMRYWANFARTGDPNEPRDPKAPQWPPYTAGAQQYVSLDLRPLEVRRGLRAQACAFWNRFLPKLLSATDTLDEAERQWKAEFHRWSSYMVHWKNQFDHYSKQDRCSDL
Records with an inconclusive call do not appear. Active and inactive are the calls of the source. Calls follow the shape of the full dose curve.
A correct response names exactly one class from label 1 for active, label 0 for inactive

Consider the following illustrative entries.
# molecule, assay.target, group.label
rows = [
    ("O=C(O)C1C(C(=O)O)C2(Cl)C(Cl)=C(Cl)C1(Cl)C2(Cl)Cl (configuration not stated)", "Acetylcholinesterase (Homo sapiens) (UniProt P22303)", "label 0"),
    ("CNC(=O)Oc1cccc2ccccc12", "Acetylcholinesterase (Homo sapiens) (UniProt P22303)", "label 1"),
    ("CC(C)(C)C(=O)CCl", "Acetylcholinesterase (Homo sapiens) (UniProt P22303)", "label 0"),
    ("CC(=O)C1CCOC1=O (configuration not stated)", "Acetylcholinesterase (Homo sapiens) (UniProt P22303)", "label 0"),
    ("CNCC(O)c1ccc(O)cc1 (configuration not stated)", "Acetylcholinesterase (Homo sapiens) (UniProt P22303)", "label 0"),
    ("C[C@H]1C(=O)O[C@@H]2CCN3CC=C(COC(=O)[C@](C)(O)[C@]1(C)O)[C@H]23", "Acetylcholinesterase (Homo sapiens) (UniProt P22303)", "label 0"),
    ("Cc1cc(Cl)ccc1OC(C)C(=O)O (configuration not stated)", "Acetylcholinesterase (Homo sapiens) (UniProt P22303)", "label 0"),
    ("O=C(O)COc1ccccc1", "Acetylcholinesterase (Homo sapiens) (UniProt P22303)", "label 0"),
    ("FC(F)(F)c1ccc(Cl)cc1", "Acetylcholinesterase (Homo sapiens) (UniProt P22303)", "label 0"),
    ("N#Cc1ccccn1", "Acetylcholinesterase (Homo sapiens) (UniProt P22303)", "label 0"),
]

query: Please let me know the test result on file for Nc1nc(N)nc(NC2CC2)n1 .
result: label 0

query: Please let me know the test result on file for CCOc1ccc(N)cc1 .
result: label 0

query: Please let me know the test result on file for CN1C(=O)CCS(=O)(=O)C1c1ccc(Cl)cc1 (configuration not stated) .
result: label 0

query: Please let me know the test result on file for Nc1ccc([As](=O)(O)O)cc1 .
result: label 0

query: Please let me know the test result on file for COc1nc(NC(C)C)nc(NC(C)C)n1 .
result: label 0

query: Please let me know the test result on file for CN(C)NC(=O)CCC(=O)O .
result: label 0

query: Please let me know the test result on file for COP(=S)(OC)Oc1ccc(SC)c(C)c1 .
result: label 0

query: Please let me know the test result on file for COC(C)(C)CCCC(C)C/C=C/C(C)=C/C(=O)OC(C)C (configuration not stated) .
result: label 0

query: Please let me know the test result on file for Cc1cccc(C)c1NC(=O)CN1CCCC1=O .
result: label 0

query: Please let me know the test result on file for CCCOC(=O)c1ccccc1C(=O)OCCC .
result: label 0

query: Please let me know the test result on file for Oc1c(Br)cc(Br)cc1Br .
result: label 0

query: Please let me know the test result on file for O=[N+]([O-])c1cc([As](=O)(O)O)ccc1O .
result: label 0

query: Please let me know the test result on file for C=C(C)C(=O)OCC(CC)CCCC (configuration not stated) .
result: label 0

query: Please let me know the test result on file for Cc1ccc(O)c(C)c1 .
result: label 0

query: Please let me know the test result on file for CC[N+](=O)[O-] .
result: label 0

query: Please let me know the test result on file for OCC(O)CCl (configuration not stated) .
result: label 0

query: Please let me know the test result on file for COS(=O)(=O)OC .
result: label 0

query: Please let me know the test result on file for CN(C)CCC#N .
result: label 0

query: Please let me know the test result on file for Cc1cccc(N)c1C .
result: label 0

query: Please let me know the test result on file for O=[N+]([O-])c1ccc(Cl)cc1 .
result: label 0

query: Please let me know the test result on file for CNc1cnn(-c2cccc(C(F)(F)F)c2)c(=O)c1Cl .
result: label 0

query: Please let me know the test result on file for CCSC(=O)N1CCCCCC1 .
result: label 0
